system: A*24:02 (human), P04439
condition_details: modification not given
recorded_endpoint: IC50 (nM)

{"binder": "SYAMCLNTF [SEQ ID NO: 308 serotype 3]", "endpoint_value": 540}
